- test_target: human GCG receptor (human, UniProt P47871 26-477)
- Sequence (P47871 26-477): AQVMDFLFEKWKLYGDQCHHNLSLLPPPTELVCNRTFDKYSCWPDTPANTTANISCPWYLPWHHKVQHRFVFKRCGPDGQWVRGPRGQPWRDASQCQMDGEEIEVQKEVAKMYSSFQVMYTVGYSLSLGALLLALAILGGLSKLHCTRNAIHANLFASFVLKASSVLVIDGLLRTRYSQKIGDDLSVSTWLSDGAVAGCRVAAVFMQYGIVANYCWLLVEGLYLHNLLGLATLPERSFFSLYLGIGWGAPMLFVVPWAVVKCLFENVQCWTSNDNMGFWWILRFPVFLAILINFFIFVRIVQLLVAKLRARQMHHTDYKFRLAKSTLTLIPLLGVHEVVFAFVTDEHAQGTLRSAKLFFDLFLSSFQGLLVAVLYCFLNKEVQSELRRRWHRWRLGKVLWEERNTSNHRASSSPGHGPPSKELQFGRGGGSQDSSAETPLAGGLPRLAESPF
- test_protocol: cell-based or functional assay
Positions of bridges follow the written chain, without caps; N, C: chain ends. Non-standard residues stand in square brackets, D forms with d. No end group written: not given here. *: point of attachment. Acetyl(2-(4-imidazolyl)) = O=C(Cc1c[nH]cn1)*; Aib = CC(C)(N)C(=O)O
Quick rule for you: In vitro Activity Compared to Native Peptide (%) vs. Glucagon at 0.9% or higher means condition met, lower means condition not met.

Here's what some known entries look like.
>>> cat("H[Aib]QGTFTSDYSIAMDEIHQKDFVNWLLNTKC (bridge 16-20) [triple agonist of SEQ ID NO: 35]")
"condition not met"
>>> cat("{Acetyl(2-(4-imidazolyl))}-[Aib]QGTFTSDYSIAMDEKHCKDFVNWLLNTK (bridge 15-19) [triple agonist of SEQ ID NO: 60]")
"condition not met"
>>> cat("H[Aib]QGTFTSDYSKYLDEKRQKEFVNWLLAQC (bridge 16-20) [triple agonist of SEQ ID NO: 56]")
"condition met"
>>> cat("H[Aib]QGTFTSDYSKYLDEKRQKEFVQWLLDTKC (bridge 16-20) [triple agonist of SEQ ID NO: 78]")
"condition met"
>>> cat("Y[Aib]QGTFTSDYSKYLDECAAKDFVQWLLDHHPSSGQPPPS (bridge 16-20) [triple agonist of SEQ ID NO: 67]")
"condition met"

Problem: Does In vitro Activity Compared to Native Peptide (%) vs. Glucagon meet or surpass 0.9% for [Acetyl(2-(4-imidazolyl))]GQGTFTSDLSKQMDSERAREFIEWLKNTGPSSGAPPPSHG [triple agonist of SEQ ID NO: 18] ?
Solution: condition not met

Problem: Is the recorded value of In vitro Activity Compared to Native Peptide (%) vs. Glucagon equal to or greater than 0.9% for this binder? H[Aib]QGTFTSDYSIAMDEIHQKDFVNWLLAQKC (bridge 16-20; also: ring type not given here) [triple agonist of SEQ ID NO: 33]
Solution: condition not met

Problem: Textbook exercise: given the entry Y[Aib]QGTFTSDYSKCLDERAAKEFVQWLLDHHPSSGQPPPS (bridge 16-20) [triple agonist of SEQ ID NO: 69] , state whether its In vitro Activity Compared to Native Peptide (%) vs. Glucagon is greater than or equal to 0.9%.
Solution: condition met

Problem: Check the entry [Acetyl(2-(4-imidazolyl))][Aib]EGTFTSDYSIAMDEIHQKDFVNWLLAQC (bridge 16-20) [triple agonist of SEQ ID NO: 83] : does In vitro Activity Compared to Native Peptide (%) vs. Glucagon equal or exceed 0.9%?
Solution: condition met

Problem: Quick check, In vitro Activity Compared to Native Peptide (%) vs. Glucagon >= 0.9%? H[Aib]QGTFTSDYSKYLDEKAQKEFVQWLLDTC (bridge 16-20) [triple agonist of SEQ ID NO: 30]
Solution: condition not met

Problem: Reported In vitro Activity Compared to Native Peptide (%) vs. Glucagon at or above 0.9%? H[Aib]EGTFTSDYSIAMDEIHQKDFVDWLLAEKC (bridge 16-20) [triple agonist of SEQ ID NO: 80]
Solution: condition not met

Problem: Hello, I need to know if H[Aib]QGTFTSDVSSYLLGQAAKQFIAWLVKGGGPSSGAPPPSC [triple agonist of SEQ ID NO: 3] has measured In vitro Activity Compared to Native Peptide (%) vs. Glucagon not below 0.9%. Thanks!
Solution: condition not met

Problem: Please indicate if the recorded In vitro Activity Compared to Native Peptide (%) vs. Glucagon for H[Aib]QGTFTSDVSSYLDGQAAKEFVAWLLKGC [triple agonist of SEQ ID NO: 6] meets or exceeds 0.9%.
Solution: condition not met

Problem: Is In vitro Activity Compared to Native Peptide (%) vs. Glucagon at least 0.9%? Consider H[Aib]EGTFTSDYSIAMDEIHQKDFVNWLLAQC (bridge 16-20) [triple agonist of SEQ ID NO: 53]
Solution: condition met

Problem: Say whether [Acetyl(2-(4-imidazolyl))][Aib]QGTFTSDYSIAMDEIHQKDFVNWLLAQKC (bridge 16-20) [triple agonist of SEQ ID NO: 92] shows In vitro Activity Compared to Native Peptide (%) vs. Glucagon of 0.9% or more.
Solution: condition not met

Problem: Quick check: does Y[Aib]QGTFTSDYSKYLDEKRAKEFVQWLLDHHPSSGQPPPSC (bridge 16-20) [triple agonist of SEQ ID NO: 42] have In vitro Activity Compared to Native Peptide (%) vs. Glucagon greater than or equal to 0.9%?
Solution: condition met

Problem: Hi, just wondering whether H[Aib]QGTFTSDVSSYLLGQQQKEFIAWLVKGGGPSSGAPPPSC (ends and bridges not checked) [triple agonist of SEQ ID NO: 5] shows In vitro Activity Compared to Native Peptide (%) vs. Glucagon of 0.9% or higher.
Solution: condition not met

Problem: Check the entry Y[Aib]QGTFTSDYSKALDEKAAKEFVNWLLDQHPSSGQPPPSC (bridge 16-20) [triple agonist of SEQ ID NO: 101] : does In vitro Activity Compared to Native Peptide (%) vs. Glucagon equal or exceed 0.9%?
Solution: condition met

Problem: Confirm if In vitro Activity Compared to Native Peptide (%) vs. Glucagon reported for the binder Y[Aib]QGTFTSDCSKYLDERAAKDFVQWLLDHHPSSGQPPPS (bridge 16-20) [triple agonist of SEQ ID NO: 72] is 0.9% or above.
Solution: condition met

Problem: Threshold query (In vitro Activity Compared to Native Peptide (%) vs. Glucagon >= 0.9%) on {Acetyl(2-(4-imidazolyl))}-[Aib]QGTFTSDYSICMDEKHQKDFVNWLLNTK (bridge 15-19) [triple agonist of SEQ ID NO: 59]
Solution: condition not met

Problem: Is the recorded value of In vitro Activity Compared to Native Peptide (%) vs. Glucagon equal to or greater than 0.9% for this binder? H[Aib]QGTFTSDYSKYLDERACQDFVQWLLDQGGPSSGAPPPS [triple agonist of SEQ ID NO: 27]
Solution: condition not met
